Values from paper PMC9519869

system under test: PARP-2 enzyme (Homo sapiens)
Construct: purchased BPS Bioscience 80,581
Sequence (Q9UGN5 whole entry): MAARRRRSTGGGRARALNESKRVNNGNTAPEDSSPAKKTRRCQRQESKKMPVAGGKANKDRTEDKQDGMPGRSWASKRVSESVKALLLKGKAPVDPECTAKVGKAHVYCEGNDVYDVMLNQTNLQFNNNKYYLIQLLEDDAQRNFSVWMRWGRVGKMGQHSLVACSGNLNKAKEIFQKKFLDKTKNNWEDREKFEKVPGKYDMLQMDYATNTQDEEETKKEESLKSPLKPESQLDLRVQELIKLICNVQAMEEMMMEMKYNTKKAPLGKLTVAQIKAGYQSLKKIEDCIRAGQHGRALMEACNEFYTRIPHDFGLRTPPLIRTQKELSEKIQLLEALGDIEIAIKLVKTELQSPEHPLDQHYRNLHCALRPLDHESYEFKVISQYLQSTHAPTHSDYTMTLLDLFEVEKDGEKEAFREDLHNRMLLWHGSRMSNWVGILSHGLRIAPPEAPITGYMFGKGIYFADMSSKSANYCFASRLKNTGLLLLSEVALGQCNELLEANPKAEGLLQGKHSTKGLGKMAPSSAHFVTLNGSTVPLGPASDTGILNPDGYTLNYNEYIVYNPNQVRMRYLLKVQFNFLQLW
assay overview: Poly (ADP-ribose) polymerase 2 (PARP-2) inhibition assay (colorimetric kit)
Format: biochemical
reported conditions: conc 0.01 (ng/ml)
measurement type: %inh of PARP-2 (Table S2 raw data) (%)

Example cases with answers are listed next.
| item smiles | unit text | %inh of PARP-2 (Table S2 raw data) |
| --- | --- | --- |
| CCN(CC)CC(=O)Nc1ccc(-c2nc3cc(Cl)ccc3o2)cc1 | % | 21.36 |
| CCN(CC)CCC(=O)Nc1ccc(-c2nc3cc(Cl)ccc3o2)cc1 | % | 37.25 |
| O=C(CCNCCCc1ccccc1)Nc1ccc(-c2nc3cc(Cl)ccc3o2)cc1 | % | 36.11 |
| O=C(CCN1CCCCC1)Nc1ccc(-c2nc3cc(Cl)ccc3o2)cc1 | % | 28.75 |

I. O=C(CCN1CCOCC1)Nc1ccc(-c2nc3cc(Cl)ccc3o2)cc1
II. O=C(CNCCc1ccccc1)Nc1ccc(-c2nc3cc(Cl)ccc3o2)cc1
Data request: Just tell me: smaller %inh of PARP-2 (Table S2 raw data) value, I or II ? Mark your selection by writing its label.
Data returned: II
(II: 20.88%, I: 35.69%)
